Listing of entries alongside the reported protein stability index.
Assay: protein stability index of a GFP-peptide fusion (yeast GPS) (PSI 1-4); higher = more stable; sorted into four equal gates, so the index is relative within each strain
Details: doa10∆

PNSGTATTGGFGANQAT [YGR119C/NUP57]    2.12

Query string: So what does the record say about protein stability index for RKYEISFGKIYVTKPMV [RPB2] ?
Result string: 1.95

Query string: Entry CGAWEPAITIEKLKQFS [SIR3] please
Result string: 1.97

====

Experiment: protein stability index of a GFP-peptide fusion (yeast GPS) (PSI 1-4); higher = more stable; sorted into four equal gates, so the index is relative within each strain
Details: ubr1∆
Listing of entries alongside the reported protein stability index.
# output: bare number, no unit

DSRKNREQSSNDSETHT [BRN1]    3.52
PTSAQKSAVSHAPAYHR [IRR1]    2.89
IHTQLSEIKQQINKAQI [YJL039C/NUP192]    3.12
QSRVPTSLTSIKWENAF [PRP8]    3.18
RQCFQDNCCDFKVRTNL [MED1]    3.21
NKVVVNLNDAGLALQLF [RPN2]    1.85
DTADEAKTLIPSLNNKI [RPB4]    3.1
KNVNIEDITEPKPDKPS [ESC2]    2.94
DISATQLPKQLWRNFCR [ITC1]    2.8
EIKDGRSLFLRNRGKIH [YMR153W/NUP53]    2.46

Query string: So what does the record say about protein stability index for MTTFYKCVNCGHRWKEN [RPC11] ?
Result string: 2.74

Query string: Entry VDFACCTNLTNRTLYEL [GRR1] please
Result string: 2.73

Query string: Entry QYILQIVSFIVNCFHED [YJL039C/NUP192] please
Result string: 2.3

Query string: Entry SLSYMAFPNASKKNRPT [RRP40] please
Result string: 2.9

Query string: Entry VVIAADTRSTQGPIVAD [PUP1] please
Result string: 3

Query string: Entry TNILISPLNTTTKILGD [YML103C/NUP188] please
Result string: 1.51

Query string: Entry ETTLGEMAEKIDFTLLN [PRP8] please
Result string: 2.71

Query string: Entry NISTNTNIHEPQYINYS [SSN2] please
Result string: 2.97

Query string: Entry IRIFRSELQRLSHENNV [RPT5] please
Result string: 2.9

Query string: Entry KYYLEESNVNDSDMLTK [NUT1] please
Result string: 3.36

Query string: Entry PRPSYSSRPNVNTTRRF [YMR129W/POM152] please
Result string: 2.82

Query string: Entry AGIPIGLKRSQLDEFKN [SWP82] please
Result string: 1.38
